Field: melting point. Provide a value for each of the compounds that follow.

Look over these answered cases.
CC(C)(C)C(=O)Nc1nnc2n1-c1ccccc1C(=O)N1CCC[C@@H]21    213 to 215 °C
O=C(Nc1nnc2n1-c1ccccc1C(=O)N1CCC[C@@H]21)c1cccs1    185 to 186 °C

Dear colleague, could you please provide melting point for the compounds listed below?
1. COc1cccc(C(=O)Nc2nnc3n2-c2ccccc2C(=O)N2CCC[C@@H]32)c1
2. O=C(Nc1nnc2n1-c1ccccc1C(=O)N1CCC[C@@H]21)c1cccc(F)c1
3. O=C(Nc1nnc2n1-c1ccccc1C(=O)N1CCC[C@@H]21)c1ccccc1
4. O=C(Nc1nnc2n1-c1ccccc1C(=O)N1CCC[C@@H]21)c1cccnc1
5. N#Cc1cccc(C(=O)Nc2nnc3n2-c2ccccc2C(=O)N2CCC[C@@H]32)c1

["168 to 170 °C", "159 to 160 °C", "173 to 175 °C", "225 °C", "245 to 246 °C"]
